- target under test: programmed death-ligand 1 (PD-L1, hPD-L1) (Homo sapiens)
- Construct: human PD-L1(18–134) with 6xHis carboxyl-terminal tag (crystal structure); recombinant Human PD-L1-His (HTRF)
- Sequence (Q9NZQ7 18-134): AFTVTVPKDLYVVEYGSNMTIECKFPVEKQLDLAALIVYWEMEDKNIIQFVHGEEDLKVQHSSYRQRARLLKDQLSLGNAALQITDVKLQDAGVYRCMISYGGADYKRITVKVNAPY
- procedure summary: co-crystal structure at […] Å (PD-L1 homodimer); IC50 from PD-1/PD-L1 HTRF assay; PD-L1/PD-L1 dimerization HTRF
quantity name: IC50 (nM)
Dear colleague, please return just the value in nM, with no unit written.

The compound listed as Cc1c(NC(=O)c2ccc(CNCCO)cn2)cccc1-c1cccc(NC(=O)c2ccc(CNCCO)cn2)c1C has a reported IC50 of 0.4
